target: EPHB2 (UniProt P29323); test: phosphorylation enrichment, bacterial display (enrichment ratio); higher = better substrate or ligand; peptides without Tyr show the background;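 further: 11-residue human phosphosite peptides and single-mutation variants displayed on the E. coli surface, counted by deep sequencing, each peptide's frequency after selection divided by its frequency in the unselected input library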;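 further: frequency after pTyr selection over input frequency; kinase dosed for 20-30% of maximal phosphorylation in three min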
Sequence (P29323 whole entry, looked up): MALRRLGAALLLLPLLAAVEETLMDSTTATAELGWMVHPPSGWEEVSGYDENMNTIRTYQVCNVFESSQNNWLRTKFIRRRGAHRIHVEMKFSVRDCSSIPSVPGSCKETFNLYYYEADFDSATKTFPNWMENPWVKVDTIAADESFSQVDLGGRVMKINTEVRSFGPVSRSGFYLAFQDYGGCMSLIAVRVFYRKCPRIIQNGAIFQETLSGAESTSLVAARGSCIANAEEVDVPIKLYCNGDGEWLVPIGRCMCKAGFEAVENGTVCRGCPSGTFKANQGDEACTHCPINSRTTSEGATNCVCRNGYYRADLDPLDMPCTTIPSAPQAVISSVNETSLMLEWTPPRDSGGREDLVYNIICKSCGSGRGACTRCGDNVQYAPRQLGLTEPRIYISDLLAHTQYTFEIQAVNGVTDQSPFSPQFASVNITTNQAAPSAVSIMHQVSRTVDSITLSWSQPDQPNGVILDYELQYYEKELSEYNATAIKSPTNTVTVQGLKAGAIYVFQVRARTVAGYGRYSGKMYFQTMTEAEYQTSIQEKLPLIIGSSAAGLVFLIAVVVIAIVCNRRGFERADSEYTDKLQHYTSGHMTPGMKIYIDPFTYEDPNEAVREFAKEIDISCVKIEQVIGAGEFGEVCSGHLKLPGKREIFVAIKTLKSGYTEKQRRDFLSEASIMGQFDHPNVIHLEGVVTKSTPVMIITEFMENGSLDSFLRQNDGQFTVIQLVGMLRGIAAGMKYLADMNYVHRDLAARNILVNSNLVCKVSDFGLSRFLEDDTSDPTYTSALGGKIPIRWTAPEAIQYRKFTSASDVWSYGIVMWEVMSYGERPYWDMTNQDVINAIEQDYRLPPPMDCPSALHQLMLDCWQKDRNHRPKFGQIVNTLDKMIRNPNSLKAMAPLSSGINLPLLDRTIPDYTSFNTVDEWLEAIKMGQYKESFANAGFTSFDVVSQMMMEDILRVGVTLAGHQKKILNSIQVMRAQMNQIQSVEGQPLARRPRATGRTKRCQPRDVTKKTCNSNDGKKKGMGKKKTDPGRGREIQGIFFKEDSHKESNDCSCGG
Consider the following sequences and their measured phosphorylation enrichment readings.

{"columns": ["Chain", "phosphorylation enrichment"],
 "data": [
  ["RYVTRHIYNRE [HLA-DQB1_Y62_Y62H]", 0.795],
  ["FSGIFYKPESL [L2HGDH_Y103_H98Y_YF]", 0.5],
  ["KVKSIYFHTQG [AR_Y916_P914S]", 0.449],
  ["KLSCSYSHWSA [C4BPA_Y470]", 0.771],
  ["LEFGDCHPLKP [VPS35L_Y32_Y32C]", 0.802],
  ["GMAHNYRNSSQ [AASS_Y188]", 0.47],
  ["GLETSYIEDNC [PAH_Y24_Q20L]", 0.569]
]}

---

target: EPHB2 (UniProt P29323); test: phosphorylation enrichment, bacterial display (enrichment ratio); higher = better substrate or ligand; peptides without Tyr show the background
Label NOT MET if phosphorylation enrichment falls below 0.6; label MET in every other case.

{"columns": ["Chain", "Label value"],
 "data": [
  ["NTVLGYFIGCI [GARS1_Y408_R412C]", "MET"],
  ["KLADVYQAELR [GFAP_Y116]", "NOT MET"],
  ["MEVGQYFFVKC [CYBB_Y324_I325F]", "MET"],
  ["SVVVTYEPPEV [TP53_Y220_P219T]", "MET"],
  ["LRAGVYHEKDQ [DNM2_Y626_P627H]", "NOT MET"],
  ["GDFFRSLAEVA [YWHAG_Y133_Y133S_YF]", "NOT MET"],
  ["EFLKNYFTDKA [DSG2_Y775_R773K]", "MET"],
  ["YTHSDYQYSQR [PKP2_Y166]", "NOT MET"],
  ["NTYEKYLEEEY [TF_Y669_G671E]", "MET"],
  ["GFKVRYATGSI [FGFR1_Y210_W213G_YF]", "NOT MET"],
  ["AAGGRYDGLVG [HARS1_Y363]", "NOT MET"],
  ["NGQAVYAACQT [XDH_Y1092]", "MET"],
  ["FLRKEYGGVNV [CBR3_Y81_L84V]", "NOT MET"]
]}

---

target: FGFR1 (UniProt P11362); assay: phosphorylation enrichment, bacterial display (enrichment ratio); higher = better substrate or ligand; peptides without Tyr show the background
Sequence (P11362 whole entry, looked up): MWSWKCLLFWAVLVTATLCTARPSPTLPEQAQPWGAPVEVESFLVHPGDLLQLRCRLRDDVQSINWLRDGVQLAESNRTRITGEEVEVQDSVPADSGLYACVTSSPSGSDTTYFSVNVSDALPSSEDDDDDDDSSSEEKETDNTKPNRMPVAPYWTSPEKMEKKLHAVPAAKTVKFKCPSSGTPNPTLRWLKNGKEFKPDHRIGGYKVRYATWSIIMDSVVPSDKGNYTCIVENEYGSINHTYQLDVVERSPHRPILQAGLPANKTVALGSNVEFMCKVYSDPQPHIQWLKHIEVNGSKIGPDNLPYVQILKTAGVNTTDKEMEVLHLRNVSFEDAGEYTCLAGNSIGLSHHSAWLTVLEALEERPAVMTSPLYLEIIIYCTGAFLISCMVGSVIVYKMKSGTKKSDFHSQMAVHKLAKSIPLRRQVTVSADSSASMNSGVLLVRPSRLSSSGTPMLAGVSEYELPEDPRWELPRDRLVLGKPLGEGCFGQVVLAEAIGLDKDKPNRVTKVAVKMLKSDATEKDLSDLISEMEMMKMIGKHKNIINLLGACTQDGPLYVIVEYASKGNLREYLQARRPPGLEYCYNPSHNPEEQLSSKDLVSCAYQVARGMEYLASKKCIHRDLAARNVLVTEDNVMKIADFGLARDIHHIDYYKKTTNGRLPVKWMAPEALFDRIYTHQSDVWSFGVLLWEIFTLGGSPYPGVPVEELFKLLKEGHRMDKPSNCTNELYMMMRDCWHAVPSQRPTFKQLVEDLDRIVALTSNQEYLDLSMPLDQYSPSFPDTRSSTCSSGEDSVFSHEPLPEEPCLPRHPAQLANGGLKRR
Consider the following sequences and their measured phosphorylation enrichment readings.
Property: phosphorylation enrichment

{"columns": ["Chain", "Experimental target", "Reported result"],
 "data": [
  ["DSMQSYDLDYP [UNC13B_Y243]", "FGFR1 (UniProt P11362)", 0.665],
  ["TDLAYYLVREG [ASL_Y376_K380E]", "FGFR1 (UniProt P11362)", 9.61],
  ["NRSSLYLVAGP [KIAA1614_Y1083]", "FGFR1 (UniProt P11362)", 0.556],
  ["GHLFACDWISI [BEST1_Y227_Y227C_YF]", "FGFR1 (UniProt P11362)", 0.613],
  ["RRDRDYTNLPS [CSF1R_Y923_E920D]", "FGFR1 (UniProt P11362)", 0.815],
  ["RAHARYCADAC [ACOT4_Y52_R57C]", "FGFR1 (UniProt P11362)", 0.436],
  ["DLDPNYVLSSR [CKM_Y125]", "FGFR1 (UniProt P11362)", 0.465],
  ["VFSATYHPDHW [EFCAB12_Y544_P541S_YF]", "FGFR1 (UniProt P11362)", 0.548],
  ["SDYSSYARTSI [TERT_Y949]", "FGFR1 (UniProt P11362)", 0.553],
  ["LEDEVYAQKMK [TPM2_Y261]", "FGFR1 (UniProt P11362)", 1.25],
  ["EFQKKYSDADI [CKAP5_Y1860_K1857Q_YF]", "FGFR1 (UniProt P11362)", 0.442],
  ["STKPQYQPGEN [SRC_Y530_E527K]", "FGFR1 (UniProt P11362)", 0.389],
  ["PAVGIYNDNIN [CDCP1_Y707]", "FGFR1 (UniProt P11362)", 0.612],
  ["HSGLAYTMERS [GLUD1_Y512]", "FGFR1 (UniProt P11362)", 0.403],
  ["LRFDSYSSFCN [SLC20A2_Y433_YF]", "FGFR1 (UniProt P11362)", 0.703],
  ["KKEGPYDVVVL [PARK7_Y67]", "FGFR1 (UniProt P11362)", 0.494],
  ["PGVDRYSLGTS [C5orf42_Y1451]", "FGFR1 (UniProt P11362)", 0.755],
  ["NDPMEYAKQHG [ASS1_Y163_L160P]", "FGFR1 (UniProt P11362)", 0.415],
  ["TINPIHEHVGF [CHN1_Y143_Y143H_YF]", "FGFR1 (UniProt P11362)", 0.393],
  ["DDSNLYINVKL [MTHFD1_Y52]", "FGFR1 (UniProt P11362)", 0.702],
  ["DEENFYQGSME [ASCC1_Y36_D34N]", "FGFR1 (UniProt P11362)", 0.465],
  ["VSRGRYRPQEC [B4GALT4_Y113]", "FGFR1 (UniProt P11362)", 0.475],
  ["YDRREYSRFEK [ITGB7_Y758]", "FGFR1 (UniProt P11362)", 0.459],
  ["GGFSRYDEGSG [RECQL5_Y484_D480G]", "FGFR1 (UniProt P11362)", 0.473],
  ["CLLHCYFSQIH [MCM3AP_Y873_R878H]", "FGFR1 (UniProt P11362)", 0.689],
  ["PESCLYKESWL [IQGAP2_Y630]", "FGFR1 (UniProt P11362)", 1.55],
  ["SKHRLYSDLQT [PTCHD1_Y84]", "FGFR1 (UniProt P11362)", 0.339],
  ["DDKQPYEKKAA [HMGB1_Y144]", "FGFR1 (UniProt P11362)", 0.493],
  ["LHQSTYQRFDV [SLC7A14_Y693_YF]", "FGFR1 (UniProt P11362)", 1.14]
]}

---

Consider the following sequences and their measured phosphorylation enrichment readings.
molecular target: Hck (UniProt P08631); test: phosphorylation enrichment, bacterial display (enrichment ratio); higher = better substrate or ligand; peptides without Tyr show the background
Sequence (P08631 whole entry, looked up): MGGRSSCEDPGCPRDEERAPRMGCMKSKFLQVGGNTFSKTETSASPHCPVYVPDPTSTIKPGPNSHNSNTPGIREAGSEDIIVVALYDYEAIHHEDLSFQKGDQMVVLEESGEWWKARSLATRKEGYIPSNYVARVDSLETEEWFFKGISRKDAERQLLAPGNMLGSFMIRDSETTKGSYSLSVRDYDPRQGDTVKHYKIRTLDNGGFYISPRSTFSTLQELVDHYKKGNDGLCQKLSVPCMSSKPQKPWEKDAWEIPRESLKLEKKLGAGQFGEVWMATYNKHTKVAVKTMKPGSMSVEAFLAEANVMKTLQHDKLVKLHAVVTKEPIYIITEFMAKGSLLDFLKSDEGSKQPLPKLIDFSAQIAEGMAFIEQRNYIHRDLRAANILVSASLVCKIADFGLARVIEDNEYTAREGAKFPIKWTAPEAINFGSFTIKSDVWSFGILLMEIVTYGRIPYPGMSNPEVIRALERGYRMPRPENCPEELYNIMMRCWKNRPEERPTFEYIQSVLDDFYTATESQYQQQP

{"columns": ["Chain", "Experimental target", "phosphorylation enrichment"],
 "data": [
  ["NGQAVYAACQT [XDH_Y1092]", "Hck (UniProt P08631)", 4.26],
  ["VFSATYHPDHW [EFCAB12_Y544_P541S_YF]", "Hck (UniProt P08631)", 0.466],
  ["GHLFACDWISI [BEST1_Y227_Y227C_YF]", "Hck (UniProt P08631)", 0.469],
  ["RQIQSYTCEID [DES_Y331_H326R]", "Hck (UniProt P08631)", 0.745],
  ["GPGLVYRVANK [FLNB_Y1833_G1834R]", "Hck (UniProt P08631)", 0.498],
  ["LQTYRYHGHSM [PDHA1_Y289]", "Hck (UniProt P08631)", 0.288],
  ["NTGDDYDLYGG [PTPN11_Y63_Y62D]", "Hck (UniProt P08631)", 2.47],
  ["LEKISYVFMKR [SSX7_Y48_YF]", "Hck (UniProt P08631)", 1.14],
  ["ALRASYTPSPA [ESS2_Y418]", "Hck (UniProt P08631)", 0.333],
  ["DKEKWYPLGNS [PIK3C2G_Y1438]", "Hck (UniProt P08631)", 0.372],
  ["PQAVTYAEVKH [LILRB4_Y360_K362E]", "Hck (UniProt P08631)", 4.17],
  ["DLVLQYLRVPL [F9_Y371_A366D]", "Hck (UniProt P08631)", 0.469],
  ["SSNPEYLSASD [INSR_Y999]", "Hck (UniProt P08631)", 0.462],
  ["GLPQTYCVSGP [DYSF_Y1684]", "Hck (UniProt P08631)", 0.631]
]}

---

Consider the following sequences and their measured phosphorylation enrichment readings.
biological target: EPHB1 (UniProt P54762); assay: phosphorylation enrichment, bacterial display (enrichment ratio); higher = better substrate or ligand; peptides without Tyr show the background
Sequence (P54762 whole entry, looked up): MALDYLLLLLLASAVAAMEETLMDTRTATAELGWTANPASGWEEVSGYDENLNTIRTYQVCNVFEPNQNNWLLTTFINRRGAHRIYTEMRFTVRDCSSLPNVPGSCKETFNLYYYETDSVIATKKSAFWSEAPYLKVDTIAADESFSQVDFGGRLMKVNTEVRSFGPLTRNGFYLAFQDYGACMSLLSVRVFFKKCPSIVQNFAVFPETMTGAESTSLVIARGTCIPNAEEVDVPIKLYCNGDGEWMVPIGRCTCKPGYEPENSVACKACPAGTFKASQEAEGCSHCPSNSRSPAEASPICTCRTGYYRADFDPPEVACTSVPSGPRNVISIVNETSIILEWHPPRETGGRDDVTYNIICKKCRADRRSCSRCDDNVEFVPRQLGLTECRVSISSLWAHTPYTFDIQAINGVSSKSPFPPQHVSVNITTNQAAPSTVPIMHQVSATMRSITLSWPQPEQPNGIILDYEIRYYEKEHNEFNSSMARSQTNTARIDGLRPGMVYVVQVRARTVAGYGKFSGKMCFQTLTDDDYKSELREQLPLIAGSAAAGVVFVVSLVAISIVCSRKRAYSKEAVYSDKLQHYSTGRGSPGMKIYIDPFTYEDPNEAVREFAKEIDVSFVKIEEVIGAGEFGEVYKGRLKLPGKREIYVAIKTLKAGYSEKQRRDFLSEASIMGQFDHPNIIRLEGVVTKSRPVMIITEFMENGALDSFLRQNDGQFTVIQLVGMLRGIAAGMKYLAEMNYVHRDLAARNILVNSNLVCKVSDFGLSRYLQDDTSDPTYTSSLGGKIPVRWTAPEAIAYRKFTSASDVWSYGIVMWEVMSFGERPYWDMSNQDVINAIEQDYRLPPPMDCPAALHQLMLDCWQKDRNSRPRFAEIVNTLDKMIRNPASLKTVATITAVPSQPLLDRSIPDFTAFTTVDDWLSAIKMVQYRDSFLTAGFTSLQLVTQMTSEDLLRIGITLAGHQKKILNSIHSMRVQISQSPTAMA
Property: phosphorylation enrichment

{"columns": ["Chain", "Reported result"],
 "data": [
  ["LFSDHYSPSGR [TMPRSS12_Y23_YF]", 0.545],
  ["FGVVGYLAIMF [RNF175_Y155]", 0.795],
  ["FKDYFYCWNTF [AICDA_Y146]", 4.05],
  ["RAADFYSQQMA [GBP6_Y334_YF]", 0.425],
  ["FCRITYDIFPF [INTS13_Y67_M66T_YF]", 2.38],
  ["CEHRGCLFLAI [TEK_Y897_Y897C_YF]", 0.554],
  ["LRRFIYRPPDR [OTOF_Y1231]", 0.529],
  ["HSYNSYTYPRL [PAK5_Y316]", 0.472],
  ["GANFEYIIAEK [ECHS1_Y35]", 0.501],
  ["IRFPPYTDWNQ [ALDH3B2_Y365_H361R_YF]", 0.396],
  ["VEDHFYEGGIG [TKT_Y564_YF]", 0.63],
  ["LKEIHYPPYTD [ALDH3B2_Y362]", 0.735],
  ["AAQNCYKVTNA [TPI1_Y105_G110A]", 0.355]
]}
